assay: Selectivity index, ratio of IC50 for human HepG2 cells to MIC>99 for antimycobacterial activity against Mycobacterium tuberculosis H37Rv CNCTC My 331/88 after 14 days; format: toxicity; details: read-out: Selectivity Index
PROPERTY_LABEL: selectivity ratio at 336 h

Exercise: Field request: selectivity ratio at 336 h | item: `O=[N+]([O-])c1cc(-c2nnc(SCc3ccccc3)n2Cc2ccccc2)cc(C(F)(F)F)c1`
Solution: > 100

###

assay: Genotoxicity in Salmonella typhimurium TA100 at 30 uM in presence of rat liver S9 fraction by Ames test; format: toxicity, subcellular; conditions: salmonella enterica subsp. enterica serovar typhimurium, s9, 30 µM
PROPERTY_LABEL: Activity

Field: example entries. Status: answers known.
COMPOUND	Activity
O=[N+]([O-])c1cc(-c2nnc(SCc3ccccc3)n2Cc2ccccc2)cc([N+](=O)[O-])c1	Non-Toxic
O=[N+]([O-])c1cc(-c2nnc(SCc3ccc(Cl)c(Cl)c3)n2Cc2ccccc2)cc(C(F)(F)F)c1	Non-Toxic
O=[N+]([O-])c1cc(-c2nnc(SCc3ccc(Cl)cc3)n2Cc2ccccc2)cc([N+](=O)[O-])c1	Non-Toxic
Cn1c(SCc2ccc(Cl)cc2)nnc1-c1cc([N+](=O)[O-])cc([N+](=O)[O-])c1	Non-Toxic
O=[N+]([O-])c1cc(-c2nnc(SCc3ccc(Cl)c(Cl)c3)n2Cc2ccccc2)cc([N+](=O)[O-])c1	Non-Toxic

Turning to the following compound.
Exercise: // query Activity value for entry Nc1ccc2cc3ccccc3cc2c1 [2-AMINOANTHRACENE]
Solution: Toxic

###

experiment: Selectivity index, ratio of IC50 for human HepG2 cells to MIC>99 for antimycobacterial activity against XDR Mycobacterium tuberculosis Praha 131 after 21 days; format: toxicity; conditions: read-out: Selectivity Index
PROPERTY_LABEL: selectivity ratio at 504 h

Exercise: Which value of selectivity ratio at 504 h has been reported for `O=[N+]([O-])c1cc(-c2nnc(SCc3ccccc3)n2Cc2ccccc2)cc(C(F)(F)F)c1` in the records?
Solution: > 100

###

system: Mycobacterium kansasii; assay: Antimycobacterial activity against Mycobacterium kansasii 6509/96 after 21 days; assay type: functional; conditions: 6509/96, 504 h
PROPERTY_LABEL: log10(MIC99) (log10 of the value in µM)
Could you please treat all values as log10 of MIC99 in µM?

COMPOUND_SMILES	PROPERTY_LABEL	ENDPOINT_VALUE
Cn1c(SCc2ccccc2)nnc1-c1cc([N+](=O)[O-])cc([N+](=O)[O-])c1	log10(MIC99)	-0.60

Exercise: GET /values?readout=log10(MIC99)&item= `O=[N+]([O-])c1cc(CSc2nnc(-c3ccccc3)n2C2CCCCC2)cc([N+](=O)[O-])c1`
Solution: 0.60

Exercise: And then `COc1ccc(CSc2nnc(-c3cc([N+](=O)[O-])cc([N+](=O)[O-])c3)n2Cc2ccccc2)cc1` , what is it?
Solution: -1.52

Exercise: Also, `O=[N+]([O-])c1cc(-c2nnc(SCc3ccc(Br)cc3)n2Cc2ccccc2)cc([N+](=O)[O-])c1` please.
Solution: -0.60

###

Measured MIC, listed per entry for reference.
tested on: Mycobacterium tuberculosis; test: Antitubercular activity against Mycobacterium tuberculosis H37Rv; type: functional
Provide only the numeric value, understood in µM.

COMPOUND_SMILES	MIC [µM]
O=c1nc(N2CCN(CC3CCCCC3)CC2)sc2c([N+](=O)[O-])cc(C(F)(F)F)cc12	0.0004
COc1nc2ccc(Br)cc2cc1[C@@H](c1ccccc1)[C@@](O)(CCN(C)C)c1cccc2ccccc12	0.05

// switching to the query molecule
Exercise: For the molecule `C[C@]1(COc2ccc(N3CCC(Oc4ccc(OC(F)(F)F)cc4)CC3)cc2)Cn2cc([N+](=O)[O-])nc2O1` , what MIC is on record?
Solution: 0.023

###

# viability at 48 h, 30 µM per entry
test: Cytotoxicity against human A431 cells assessed as cell viability at 30 uM after 48 hrs by CellTiter 96 aqueous one solution assay relative to control; format: cell-based, A-431; conditions: read-out: Activity
Write it as a number; the unit % goes unstated.

Consider the following illustrative entries.
COMPOUND_SMILES	PROPERTY_LABEL	MEASURE_UNIT	ENDPOINT_VALUE
O=[N+]([O-])c1cc(CSc2nnc(-c3ccccc3)n2C2CCCCC2)cc([N+](=O)[O-])c1	viability at 48 h, 30 µM	%	131
O=[N+]([O-])c1cc(CSc2nnc(-c3ccccc3)n2Cc2ccccc2)cc([N+](=O)[O-])c1	viability at 48 h, 30 µM	%	69
COc1ccc(CSc2nnc(-c3cc([N+](=O)[O-])cc([N+](=O)[O-])c3)n2C)cc1	viability at 48 h, 30 µM	%	104
CCCSc1nnc(-c2cc([N+](=O)[O-])cc([N+](=O)[O-])c2)n1Cc1ccccc1	viability at 48 h, 30 µM	%	123
COc1ccc(Cn2c(SCc3cc([N+](=O)[O-])cc([N+](=O)[O-])c3)nnc2-c2ccccc2)cc1	viability at 48 h, 30 µM	%	127
Cn1c(SCc2ccccc2)nnc1-c1cc([N+](=O)[O-])cc([N+](=O)[O-])c1	viability at 48 h, 30 µM	%	108
Cn1c(SCc2ccc(Br)cc2)nnc1-c1cc([N+](=O)[O-])cc([N+](=O)[O-])c1	viability at 48 h, 30 µM	%	137
Cn1c(SCc2ccc(Cl)cc2)nnc1-c1cc([N+](=O)[O-])cc([N+](=O)[O-])c1	viability at 48 h, 30 µM	%	85

Please turn your attention to the following entry.
Exercise: Form field: reported viability at 48 h, 30 µM of `CCCCCCn1c(SCc2ccccc2)nnc1-c1cc([N+](=O)[O-])cc([N+](=O)[O-])c1`
Solution: 98

###

assay: Cytotoxicity against human HepG2 cells assessed as cell viability at 30 uM after 48 hrs by CellTiter 96 aqueous one solution assay relative to control; assay type: cell-based; conditions: read-out: Activity
PROPERTY_LABEL: viability at 48 h, 30 µM (%)
Kindly answer with a numeric value in %, unit omitted.

Worked cases, viability at 48 h, 30 µM given:
COMPOUND_SMILES	ENDPOINT_VALUE
CSc1nnc(-c2cc([N+](=O)[O-])cc([N+](=O)[O-])c2)n1Cc1ccccc1	93
O=[N+]([O-])c1cc(-c2nnc(SCc3ccc(Cl)c(Cl)c3)n2Cc2ccccc2)cc(C(F)(F)F)c1	104
COc1ccc(CSc2nnc(-c3cc([N+](=O)[O-])cc(C(F)(F)F)c3)n2Cc2ccccc2)cc1	86
O=[N+]([O-])c1cc(CSc2nnc(-c3ccc(Cl)cc3)n2Cc2ccccc2)cc(C(F)(F)F)c1	107
COc1ccc(CSc2nnc(-c3cc([N+](=O)[O-])cc([N+](=O)[O-])c3)n2C)cc1	107
CCCCCCn1c(SCc2ccccc2)nnc1-c1cc([N+](=O)[O-])cc([N+](=O)[O-])c1	102
Cn1c(SCc2ccc(Cl)c(Cl)c2)nnc1-c1cc([N+](=O)[O-])cc([N+](=O)[O-])c1	110

Now for a further compound.
Exercise: What does the record list as viability at 48 h, 30 µM for `O=[N+]([O-])c1cc(CSc2nnc(-c3ccccc3)n2-c2ccc(Cl)c(Cl)c2)cc([N+](=O)[O-])c1` ?
Solution: 134

###

test system: Staphylococcus aureus; experiment: Antibacterial activity against methicillin-resistant Staphylococcus aureus subsp. aureus ATCC 43300 CCM 4750 at highest concentration measured after 24 to 48 hrs by alamar blue dye based broth microdilution assay; assay type: functional, organism-based
Active and inactive are the calls of the source. The rule behind the calls is not given here.
PROPERTY_LABEL: Activity

Check out these entries, answers already filled in.
COMPOUND_SMILES	Activity
O=[N+]([O-])c1cc(CSc2nnc(-c3ccccc3)n2-c2ccc(Cl)c(Cl)c2)cc([N+](=O)[O-])c1	inactive
COc1ccc(CSc2nnc(-c3cc([N+](=O)[O-])cc(C(F)(F)F)c3)n2Cc2ccccc2)cc1	inactive
O=[N+]([O-])c1cc(CSc2nnc(-c3ccccc3)n2Cc2ccccc2)cc(C(F)(F)F)c1	inactive
O=[N+]([O-])c1cc(CSc2nnc(C3CCCCC3)n2Cc2ccccc2)cc([N+](=O)[O-])c1	inactive
O=[N+]([O-])c1cc(-c2nnc(SCc3ccccc3)n2Cc2ccccc2)cc([N+](=O)[O-])c1	inactive
O=[N+]([O-])c1cc(CSc2nnc(-c3ccc(Cl)cc3)n2Cc2ccccc2)cc([N+](=O)[O-])c1	inactive
CCCCCCn1c(SCc2ccccc2)nnc1-c1cc([N+](=O)[O-])cc([N+](=O)[O-])c1	inactive
O=[N+]([O-])c1cc(Cn2c(SCc3ccccc3)nnc2-c2ccccc2)cc([N+](=O)[O-])c1	inactive
O=[N+]([O-])c1cc(CSc2nnc(-c3ccccc3)n2Cc2ccccc2)cc([N+](=O)[O-])c1	inactive
O=[N+]([O-])c1cc(-c2nnc(SCc3ccccc3)n2Cc2ccc(Cl)cc2Cl)cc([N+](=O)[O-])c1	inactive

Exercise: Can you look up the measured Activity of `CCCCCCCCCCCCn1c(SCc2ccccc2)nnc1-c1cc([N+](=O)[O-])cc([N+](=O)[O-])c1` for me?
Solution: inactive

Exercise: Now consider `O=[N+]([O-])c1cc(-c2nnc(SCc3ccccc3)n2Cc2ccccc2)cc(C(F)(F)F)c1` and answer again.
Solution: inactive

Exercise: Try `Cn1c(SCc2ccc(Br)cc2)nnc1-c1cc([N+](=O)[O-])cc([N+](=O)[O-])c1` next.
Solution: inactive

Exercise: Again, but for `CCCCCCc1nnc(SCc2cc([N+](=O)[O-])cc([N+](=O)[O-])c2)n1Cc1ccccc1`
Solution: inactive

Exercise: Here is the next compound: `O=[N+]([O-])c1cc(-c2nnc(SCc3ccc(Cl)cc3)n2Cc2ccccc2)cc(C(F)(F)F)c1`
Solution: inactive

Exercise: Another compound to look at: `Cn1c(SCc2ccc(Cl)cc2)nnc1-c1cc([N+](=O)[O-])cc([N+](=O)[O-])c1`
Solution: inactive

Exercise: Now this one: `COc1ccc(-c2nnc(SCc3cc([N+](=O)[O-])cc(C(F)(F)F)c3)n2Cc2ccccc2)cc1`
Solution: inactive
